Catalogue of cytotoxicity at 70.5 h values
Procedure Details: Human HepG2 cell viability assay in 384 well format
Assay type: toxicity, cell-based
Set-up: dose 125 nL, time 70.5 hour; concentration not given beside the values
Run Parameters: HepG2 cells, read-out: Inhibition

{"Molecule": "CN(C)Cc1nc(C(C)(C)NC(=O)c2nc3ccccc3s2)no1", "Units Text": "%", "cytotoxicity at 70.5 h": -7.47}
{"Molecule": "COc1ccc(NC(=O)N2CCN(c3ncccn3)CC2)cn1", "Units Text": "%", "cytotoxicity at 70.5 h": -5.14}
{"Molecule": "CCC1CN(CC(=O)NC2(C#N)CCCC2)CCN1CCOC (centres undefined)", "Units Text": "%", "cytotoxicity at 70.5 h": -6.19}
{"Molecule": "CSC(C)C(=O)NS(=O)(=O)c1ccc(F)c(C(F)(F)F)c1 (centres undefined)", "Units Text": "%", "cytotoxicity at 70.5 h": 22.2}
